B1: Pistol ribozyme (parent)
chain: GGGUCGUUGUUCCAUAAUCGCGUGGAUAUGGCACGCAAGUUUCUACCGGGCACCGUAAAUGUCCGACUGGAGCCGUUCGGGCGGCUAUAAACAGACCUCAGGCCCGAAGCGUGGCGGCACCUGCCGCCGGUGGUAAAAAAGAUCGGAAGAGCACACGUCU

Variants of: B1
Assay: aptazyme ON/OFF ratio, guanine; higher = stronger switching; co-transcriptional cleavage with and without guanine
Metric: aptazyme ON/OFF ratio
Numbers only.

Reference set (5 entries):
{"Mutation code": "U8C G9U U10A U11A C12A C13U", "aptazyme ON/OFF ratio": 1.33}
{"Mutation code": "U7G U8C G9A U11C C12A C13A", "aptazyme ON/OFF ratio": 1.11}
{"Mutation code": "U7A G9A U10C U11G C12U", "aptazyme ON/OFF ratio": 1.29}
{"Mutation code": "U7A U8A G9U U10G C12A C13G", "aptazyme ON/OFF ratio": 1.09}
{"Mutation code": "U8A G9A U11A C12G", "aptazyme ON/OFF ratio": 1.31}

Go through the items and report each one's aptazyme ON/OFF ratio.
1. U7C U8A G9C U10C U11G C13U
2. U7A U8A U11A C12A C13U
3. U7G U8A G9A U10G U11C C12A

[A]
1. 1.16
2. 1.26
3. 1.13
